Value source: paper PMC9482650

biological target: MAGI2_4, Q86UL8; experiment: holdup assay; set-up: key: below the threshold = too weak to quantify, mostly under pKd 3.1 to 4; details: plain residues with an end cap or a label only (N-terminal biotin on a linker: ado-ado)
Sequence (Q86UL8 772-865): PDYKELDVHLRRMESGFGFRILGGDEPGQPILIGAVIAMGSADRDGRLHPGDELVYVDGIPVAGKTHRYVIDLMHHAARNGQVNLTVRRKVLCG
Returns one of met or not met; met when pKd is >= 4.

Below are worked cases with known answers.
DGVNEKVSCV [HTR2A, P28223]    not met
KSRVAFFEEL [NF2, P35240]    not met
RDPPAEWTRV [PTPN18, Q99952]    not met
SFISKKEWYV [NECTIN1, Q15223]    not met
LESTTVGTSV [KARS1, Q15046]    met
GIKKITSTAL [RPS6KA3, P51812]    not met
ARSAAASNYV [CLDN4, O14493]    not met
EIPAQSPTCV [FZD10, Q9ULW2]    not met
TGLWKHETTV [ADGRA3, Q8IWK6]    met
TISFTQTSQF [SLC1A1, P43005]    not met

Query: Form field: pKd at least 4? Entry: RFQQRMQTHV [KIRREL1, Q96J84]
Result: not met

Query: Could you verify whether the entry QSYPSKHDYV [CLDN18, P56856] shows pKd of no less than 4?
Result: not met

Query: Check the entry LPAVCYDIDI [PTTG2, Q9NZH5] : does pKd equal or exceed 4?
Result: not met
